molecular target: RORγ LBD (Homo sapiens (Human), UniProt P51449); experiment: TR-FRET co-repressor NCoR1-D2 interaction with RORγ LBD; assay type: biochemical; conditions: 2 hr; read-out: RORγ EC50 NCoR1-D2 co-repressor recruitment 2 hr
Sequence (P51449 269-508): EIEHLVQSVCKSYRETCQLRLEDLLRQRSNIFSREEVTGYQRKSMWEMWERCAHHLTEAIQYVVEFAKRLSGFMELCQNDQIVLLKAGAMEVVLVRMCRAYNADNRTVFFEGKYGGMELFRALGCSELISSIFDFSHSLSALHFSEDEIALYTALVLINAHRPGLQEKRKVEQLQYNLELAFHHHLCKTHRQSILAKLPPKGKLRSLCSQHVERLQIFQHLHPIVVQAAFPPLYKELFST
pEC50: −log10 of the molar value.
VALUE_TYPE: pEC50

CC(=O)Nc1ccc2c(c1)CCN2Cc1ccc(C(C)C)cc1 | < 4.52
CS(=O)(=O)Nc1ccc2c(c1)CCCN2Cc1ccc(C(O)(C(F)(F)F)C(F)(F)F)cc1 | > 4.52
CC(=O)Nc1ccc2c(c1)CCN2Cc1ccc(C(F)(F)F)cc1 | < 4.52
CC(=O)Nc1ccc2c(c1)CCN2Cc1ccc(C(N)=O)cc1 | < 4.52

Could you now look at the following molecule, please?
Record lookup: for RORγ LBD (Homo sapiens (Human), UniProt P51449), what pEC50 belongs to `CNC(=O)c1ccc(CN2CCc3cc(NC(C)=O)ccc32)cc1` ?
< 4.52
